- Test system: hT40, dGA, dGAE and truncated tau fragments
- method_summary: Binding ELISA / epitope mapping of anti-tau scAbs with truncated tau proteins and 13mer peptides
- Set-up: species or system human
- experimental_conditions: second Table 25; mAb format

molecule: 3aG3: N-terminal anti-tau clone, Table 6; SEQ ID NO: 424 (protein, 3aG3 amino acid sequence) QVQLQESGPSLVKPSQTLSLTCTVSGFSLSSNGVGWVRQAPGKVPEWVGDISSSGKAYANPALKSRLSITRDTAKTQVFLSLSSVTTEDTAVYYCVRCRDGGVSYGYDIDYWGPGLLVTVSSEGKSSGASGESKVDDQAVLTQPPSVSGSPGQRVSITCSGSSSNIGGGNYLSWFQQVPGSAPKLLIYGATSRASGVPDRFSGSRSGNTATLTISSLQAEDEADYYCASFDTSSGGIFGAGTRLTVLG
hT40 binding region: 1-15
--
molecule: 3bD11: anti-tau clone, Table 10; SEQ ID NO: 637 (protein) scFv: RVRLQGSGPSLVKPSQTLSLTCTVSGFSFDSYYVGWVRQAPGKALEWLGNIYSTGRAFYNPALKSRLSITRDTSKSQVSLSVSSVTIEDTALYYCVRGSYYHGGGNGMVDFFDYWSPGLLVTVSSEGKSSGASGESKVDDQVVRTQPSSVSGSLGQRVSITCSGSSSNVGYGNYVGWFQQVPGSAPKLLIYAATSRASGVPDRFSGSRSGNTATLTIDSLQAEDEADYYCSSYQRGNTGVFGSGTRLTVLG
hT40 binding region: 37-49
--
molecule: 3aH6: N-terminal anti-tau clone, Table 6; SEQ ID NO: 423 (protein, 3aH6 amino acid sequence) QVQLQESGPSLVKPSQTLSLTCTVSGFSLSSNGVGWVRQAPGKVPEWLGDISSVGKKYANPALKSRLSFTRDTSKSQVSLSLSSVTTEDTAVYYCVKCRDGGVTYGYDIDYWGPGLLVTASSEGKSSGASGESKVDDQAVVTQPSSVSGSLGQSVSITCSGSSGNVGYGDYVSWFQQFHGSAPKLLIYGATNLASGVPARFSGSRSGNTATLTISSLHAEDEADYYCASYDSSSGGVFGSGTRLTVLG
hT40 binding region: 1-15

This collection of values is drawn from patent US20250355001A1.
